The origin of these recorded values is patent US20190359693A1.

# MEASURED_TARGET: hemagglutinin (HA) of influenza virus H1N1 A/New Caledonia/20/99 (influenza A virus)
# ASSAY: cell-based or functional assay
OUTCOME_MEASURE: average neutralization titer (nM)
Write down the numeric answer in nM and omit the unit.

The value of average neutralization titer measured for the binder MD2302 (bispecific antibody) EVQLVESGGGLVQPGGSLRLSCAVSISIFDIYAMDWYRQAPGKQRDLVATSFRDGSTNYADSVKGRFTISRDNAKNTLYLQMNSLKPEDTAVYLCHVSLYRDPLGVAGGMGVYWGKGALVTVSSGGGGSGGGGSEVQLVESGGGLVQPGGSLRLSCAATGFTLENKAIGWFRQTPGSEREGVLCISKSGSWTYYTDSMRGRFTISRDNAENTVYLQMDSLKPEDTAVYYCATTTAGGGLCWDGTTFSRLASSWGQGTQVTVSSGGGGSGGGGSEVQLVESGGGLVQAGGSLKLSCAASGRTYAMGWFRQAPGKEREFVAHINALGTRTYYSDSVKGRFTISRDNAKNTEYLEMNNLKPEDTAVYYCTAQGQWRAAPVAVAAEYEFWGQGTQVTVSS turned out to be 14.7

Entry MD2305 (bispecific antibody) EVQLVESGGGLVQPGGSLRLSCAVSISIFDIYAMDWYRQAPGKQRDLVATSFRDGSTNYADSVKGRFTISRDNAKNTLYLQMNSLKPEDTAVYLCHVSLYRDPLGVAGGMGVYWGKGALVTVSSGGGGSGGGGSEVQLVESGGGLVQPGGSLRLSCAATGFTLENKAIGWFRQTPGSEREGVLCISKSGSWTYYTDSMRGRFTISRDNAENTVYLQMDSLKPEDTAVYYCATTTAGGGLCWDGTTFSRLASSWGQGTQVTVSSGGGGSGGGGSEVQLVESGGGLVQPGGSLRLSCAVSISIFDIYAMDWYRQAPGKQRDLVATSFRDGSTNYADSVKGRFTISRDNAKNTLYLQMNSLKPEDTAVYLCHVSLYRDPLGVAGGMGVYWGKGALVTVSS , average neutralization titer reported as 4.3

Switching to the query record.
The binder listed as MD2303 (bispecific antibody) EVQLVESGGGLVQPGGSLRLSCAVSISIFDIYAMDWYRQAPGKQRDLVATSFRDGSTNYADSVKGRFTISRDNAKNTLYLQMNSLKPEDTAVYLCHVSLYRDPLGVAGGMGVYWGKGALVTVSSGGGGSGGGGSEVQLVESGGGLVQAGGSLKLSCAASGRTYAMGWFRQAPGKEREFVAHINALGTRTYYSDSVKGRFTISRDNAKNTEYLEMNNLKPEDTAVYYCTAQGQWRAAPVAVAAEYEFWGQGTQVTVSSGGGGSGGGGSEVQLVESGGGLVQPGGSLRLSCAATGFTLENKAIGWFRQTPGSEREGVLCISKSGSWTYYTDSMRGRFTISRDNAENTVYLQMDSLKPEDTAVYYCATTTAGGGLCWDGTTFSRLASSWGQGTQVTVSS has a reported average neutralization titer of 7.2
